- System: HOP-62 NSCLC
- TEST SUMMARY: NCI tumour cell line growth inhibition, 48 h
RECORDED ENDPOINT: TGI

query: Note down TGI recorded for N=c1ccn2c(n1)OC1C(OP(=O)(O)O)C(CO)OC12 (stereo not given)
result: > 100 µM

query: Note down TGI recorded for O=S(=O)(O)c1cc(S(=O)(=O)O)c2c(N=Nc3cccc4ccccc34)c(O)ccc2c1
result: > 100 µM

query: Note down TGI recorded for N#CN=Nc1cc(Cl)c(N=NC#N)cc1Cl
result: > 100 µM

query: Note down TGI recorded for CCOC(=O)C(NNS(=O)(=O)c1ccc(C)cc1)S(=O)(=O)C(F)(F)C(F)(F)C(F)(F)C(F)(F)F (stereo not given)
result: > 100 µM

query: Note down TGI recorded for CC(=O)O[C@H]1CC[C@H]2[C@@H]3CCc4cc(O)c(I)cc4[C@H]3CC[C@]12C
result: 24 µM

query: Note down TGI recorded for COC(=O)[C@@H]1O[C@]12C(CO[Si](C)(C)C(C)(C)C)OC(n1ccc(=O)[nH]c1=O)C2O[Si](C)(C)C(C)(C)C (stereo not given in full)
result: 48 µM

query: Note down TGI recorded for CC1=CC(C)C(C)N(CCNC(=O)Nc2ccccc2)c2ccccc21 (stereo not given)
result: 63.4 µM

query: Note down TGI recorded for COC1Cc2c(C)c(OC(C)=O)c3cccnc3c2O1 (stereo not given)
result: 90.9 µM

query: Note down TGI recorded for CC(=O)CC(=O)N(CCN(C(=O)CC(C)=O)c1ccccc1)c1ccccc1
result: > 100 µM

query: Note down TGI recorded for C/C(=N\O)c1sc(-n2nc(-c3ccccc3)cc2-c2ccccc2)nc1C
result: 22.2 µM

query: Note down TGI recorded for CC(=O)O[C@H](C[C@H](C(C)C)N(C)C(=O)[C@@H](NC(=O)[C@H]1CCCCN1C)C(C)C)c1nc(C(=O)N[C@@H](Cc2ccccc2)C[C@H](C)C(=O)O)c(C)s1
result: > 25 µM

query: Note down TGI recorded for COC1=CC(=O)c2ccc(C(C)C)cc2C1(C)C1=NC(C)(C)CO1 (stereo not given)
result: > 100 µM

query: Note down TGI recorded for Cc1cc(NC(=O)c2ccc(NS(=O)(=O)CCO)cc2N2CCC3(CC2)CC3)nc(N2CCC(F)(F)CC2)n1
result: 30.4 µM

query: Note down TGI recorded for Cc1ccc2c(c1)C(=O)/C(=C1/CCc3ccc(C)cc31)C2
result: > 100 µM

query: Note down TGI recorded for CNC(=O)Nc1cc2c3c(c1)CCCN3CCC2
result: > 10 µM

query: Note down TGI recorded for O=C(CCl)N1CCCCC1C1(c2cc3ccccc3[nH]2)OCCO1 (stereo not given)
result: 20.6 µM

query: Note down TGI recorded for COC(=O)c1cc(Br)c(C(=O)C(Cl)(Cl)Cl)[nH]1
result: > 100 µM

query: Note down TGI recorded for C[C@H]1CCC/C=C/[C@@H]2C[C@H](O)C[C@H]2[C@H](O)[C@H](S(=O)c2ccc(O)cc2)CC(=O)O1 (stereo not given in full)
result: > 65.6 µM

query: Note down TGI recorded for Nc1ncc(-c2cnn(C3CCNCC3)c2)cc1-c1nc2ccccc2o1
result: 5.19 µM

query: Note down TGI recorded for CCC1CCc2nc3sc(C(=O)Nc4ccccc4F)c(N)c3cc2C1 (stereo not given)
result: > 100 µM

query: Note down TGI recorded for Cc1nc(NC(=S)NC(=O)c2ccc(Cl)c(Cl)c2)sc1C(=O)/C=C/c1ccccc1[N+](=O)[O-]
result: 47.9 µM

query: Note down TGI recorded for O=C1CN(c2cccc(C(F)(F)F)c2)C(=O)CN1NCNN1CC(=O)N(c2cccc(C(F)(F)F)c2)CC1=O
result: > 100 µM

query: Note down TGI recorded for COC(=O)c1cc(C)ccc1/C=C1\Cc2cc(C)c(C)cc2C1=O
result: > 100 µM

query: Note down TGI recorded for CCSC(=Nc1ccccc1)SC
result: > 100 µM

query: Note down TGI recorded for O=C(O)C(Cc1cccs1)NC(=O)C(F)(F)F (stereo not given)
result: > 100 µM

query: Note down TGI recorded for COc1ccc(C2Oc3c(cccc3OC)C=C2[N+](=O)[O-])cc1OC (stereo not given)
result: > 100 µM

query: Note down TGI recorded for C/C(=C\c1ccn(-c2ccc(N)c(C(F)(F)F)c2)n1)[C@@H]1C[C@@H]2O[C@]2(C)CCC[C@H](C)[C@H](O)[C@@H](C)C(=O)C(C)(C)[C@@H](O)CC(=O)O1
result: > 20.3 µM

query: Note down TGI recorded for C[C@]12CCC[C@H](OC=O)C1(O)C[C@H](C(=O)O)CC2 (stereo not given in full)
result: > 100 µM

query: Note down TGI recorded for CCN1C(=O)N(CC)C2C1NN=c1s/c(=C3\C(=O)N(CCC(C)C)c4ccccc43)c(=O)n12 (stereo not given)
result: 6.45 µM

query: Note down TGI recorded for O=[N+]([O-])C(/C(Cl)=C(/Cl)N1CCCCC1)=C1\NCCO1
result: > 100 µM

query: Note down TGI recorded for Nc1nc(N)c2nc(CNc3ccc(C(=O)CC(CCC(=O)O)C(=O)O)cc3)cnc2n1 (stereo not given)
result: > 100 µM

query: Note down TGI recorded for C1COC2SC3=C(SC(=C4SC5=C(SCCS5)S4)S3)SC2O1 (stereo not given)
result: > 100 µM

query: Note down TGI recorded for CC1(C)CC23C(=O)N(c4ccccc4)C(=Nc4ccccc4)NC2=CC(C#N)=C(C#N)C3O1 (stereo not given)
result: > 100 µM

query: Note down TGI recorded for CCOC(=O)CSc1nc(-c2ccc(OC)cc2)c(C#N)c(=O)[nH]1
result: > 100 µM

query: Note down TGI recorded for COc1cc2[nH]c(C(=O)c3cc(OC)c(OC)c(OC)c3)c(N)c2cc1C#CCO
result: > 100 µM

query: Note down TGI recorded for O=C(O)CN1CCNCCN(CC(=O)O)CC1
result: > 100 µM

query: Note down TGI recorded for C=C(C)C1CC=C(C(=O)O)CC1 (stereo not given)
result: 1770 µM

query: Note down TGI recorded for CC(=O)N1NC(c2ccccc2)=CC(=O)/C1=C/C(=O)c1ccccc1
result: > 100 µM

query: Note down TGI recorded for COc1ccc2[nH]c3c4c(c5cc(C(C)(C)C)ccc5c3c2c1)C(=O)N(c1ccccc1)C4=O
result: > 100 µM

query: Note down TGI recorded for CON(C)C(=O)C(Cc1ccccc1)NC(=O)OC(C)(C)C (stereo not given)
result: > 100 µM

Source listed as PubChem BioAssay (NCI).
